study_target: NACHT, LRR and PYD domains-containing protein 3 (Mus musculus)
measurement_notes: Inhibition of NLRP3 inflammasome activation in LPS-treated mouse BMDM cells assessed as Bz-ATP-stimulated IL-1beta level at 1 uM incubated for 30 mins followed by Bz-ATP stimulation for 30 mins by ELISA method
Format: cell-based
condition_summary: time 60.0 min
Each item that follows carries a reported Activity.
Record the value in pg/mL, omitting the unit from your answer.

Worked cases, answers included:
O=C(Nc1c2c(cc3c1CCC3)CCC2)[C@@H](Cc1ccccc1)NS(=O)(=O)c1ccc([N+](=O)[O-])cc1    143
C[C@H](NS(=O)(=O)c1ccc([N+](=O)[O-])cc1)C(=O)Nc1c2c(cc3c1CCC3)CCC2    349
O=C(Nc1c2c(cc3c1CCC3)CCC2)[C@@H]1CCCN1S(=O)(=O)c1ccc([N+](=O)[O-])cc1    210
Nc1ccc(S(=O)(=O)N2CCCC[C@H]2C(=O)Nc2c3c(cc4c2CCC4)CCC3)cc1    211
NCCCC[C@H](NS(=O)(=O)c1ccc(N)cc1)C(=O)Nc1c2c(cc3c1CCC3)CCC2    203

Query :: Which Activity is reported for this molecule? Nc1ccc(S(=O)(=O)N[C@H](C(=O)Nc2c3c(cc4c2CCC4)CCC3)c2ccccc2)cc1
Result :: 237

Query :: Which Activity is reported for this molecule? O=C(Nc1c2c(cc3c1CCC3)CCC2)[C@@H]1Cc2ccccc2CN1S(=O)(=O)c1ccc([N+](=O)[O-])cc1
Result :: 131

Query :: Which Activity is reported for this molecule? O=C(CCNS(=O)(=O)c1ccc([N+](=O)[O-])cc1)Nc1c2c(cc3c1CCC3)CCC2
Result :: 180
